Test system: CAKI-1 renal
Assay: NCI-60 one-dose screen, 48 h (100 = growth as untreated, 0 = no growth, -100 = all killed)
Settings: 10 µM
The panel holds about 83,000 compounds, 20% with a hit somewhere; the sample as a whole holds those more often.
Reported growth values for a set of compounds
Answer with a number only, understood to be in %.

Below, 6 compounds whose answers are already recorded.
• Nc1nc(N)c2c(n1)NC(c1ccccc1)CC(c1ccc(Nc3nc(NCCO)nc(Nc4ccc(Cl)cc4)n3)cc1)=N2 (configuration not stated) = 61
• C#CCOc1ccc(/C=N/Nc2nc(-c3cc4cc(Br)cc(Br)c4oc3=O)cs2)cc1 = 88.1
• C#C[C@]1(O)CC[C@H]2[C@@H]3CC=C4c5sc(Nc6ccc(OC)nc6)nc5CC[C@]4(C)[C@H]3CC[C@@]21C = 23.8
• CC1OC(O[C@@H]2[C@H](O)C(CO)OC(O[C@H]3COC(O[C@H]4CC[C@]5(C)[C@H]6CC[C@]78OC[C@@]9(CC[C@](C)(C=O)C[C@H]97)C(=O)C[C@@]8(C)[C@]6(C)CC[C@H]5C4(C)C)[C@@H](O)[C@@H]3O)[C@H]2OC2OC[C@@H](O)[C@@H](O)[C@@H]2O)[C@@H](O)[C@@H](O)[C@H]1O (some centres not stated) = 84.8
• O=C(Nc1cccc(Cl)c1)Nc1nc2ccc(-c3cccc4ccccc34)cc2s1 = 37.9
• Cn1cc(-c2nn3c(=O)cc(-c4ccccc4)nc3s2)c2cc(F)ccc21 = 31.6

Please look at the following compound next.
Qu. Specify growth for C/C(=C(/c1ccc(O)cc1)c1ccc(OCCN2CCCCCC2)cc1)c1ccccc1 and stop.
Ans. 39.2

This collection of values is drawn from PubChem BioAssay (NCI).
